- Assay System: DNA gyrase (Escherichia coli, UniProt P0AES4+P0AES6)
- Measurement Notes: Inhibition of Escherichia coli DNA gyrase using relaxed pNO1 plasmid and biotinylated oligonucelotide incubated for 30 mins by fluorescence based DNA super-coiling assay
- Type: protein-complex assay
pIC50: −log10 of the molar value.
Measured Metric: pIC50

# annotated cases, reported pIC50 shown
In [3]: df
Out[3]:
                                   compound  measured_metric  reported_result
0  COC(=O)CCC(=O)Nc1nc2c(s1)C[C@@H](NC(=O)c1cc(Cl)c(Cl)[nH]1)CC2            pIC50             6.05
1  COC(=O)CC(=O)Nc1nc2c(s1)C[C@@H](NC(=O)c1cc(Br)c[nH]1)CC2            pIC50             4.60
2  O=C(O)CCC(=O)Nc1nc2c(s1)C[C@@H](NC(=O)c1cc(Br)c(Br)[nH]1)CC2            pIC50             7.31
3  O=C(O)CC(=O)Nc1nc2c(s1)C[C@@H](NC(=O)c1cc(Br)c(Br)[nH]1)CC2            pIC50             7.16
4  COC(=O)CC(=O)Nc1nc2c(s1)C[C@@H](NC(=O)c1cc(Cl)c(Cl)[nH]1)CC2            pIC50             6.40

(P) Nc1ncc2c(n1)CCC(NC(=O)c1cc(Br)c[nH]1)C2 (configuration not stated)
(Q) Nc1nc2c(s1)C[C@@H](NC(=O)c1cc(Cl)c(Cl)[nH]1)CC2
Lab log: flag the item ( P or Q ) with the smaller pIC50 figure. Provide the label of your selected option as the answer.
P

(A) NC(=O)CC(=O)Nc1nc2c(s1)C[C@@H](NC(=O)c1cc(Br)c(Br)[nH]1)CC2
(B) Nc1ncc2c(n1)CCC(NC(=O)c1cc3ccccc3[nH]1)C2 (configuration not stated)
(C) O=C1CCN2C(=N1)SC1=C2CC[C@H](NC(=O)c2cc(Br)c(Br)[nH]2)C1
Arrange these 3 compounds in increasing order of pIC50. // format: requested-order list of labels
B, C, A

(1) COC(=O)CCC(=O)Nc1nc2c(s1)C[C@@H](NC(=O)c1cc3ccccc3[nH]1)CC2
(2) Nc1ncc2c(n1)CCC(NC(=O)c1cc(Br)c(Br)[nH]1)C2 (configuration not stated)
Which item exceeds the other in pIC50, 1 or 2 ? Provide the label of your selected option as the answer.
2
(2: 5.54, 1: 5.04)

(P) Nc1ncc2c(n1)CCC(CNC(=O)c1cc(Br)c(Br)[nH]1)C2 (configuration not stated)
(Q) Nc1nc2c(s1)C[C@H](NC(=O)c1cc(Br)c(Br)[nH]1)CC2
(R) O=C(O)CCC(=O)Nc1nc2c(s1)C[C@@H](NC(=O)c1cc3ccccc3[nH]1)CC2
(S) Nc1nc2c(s1)C[C@@H](NC(=O)c1cc(Br)c[nH]1)CC2
(T) O=C(O)CC(=O)Nc1nc2c(s1)C[C@@H](NC(=O)c1cc(Cl)c(Cl)[nH]1)CC2
Sort the 5 compounds by pIC50; largest first, smallest last. // format: requested-order list of labels
T, R, Q, P, S
(T: 6.89, R: 5.09, Q: 4.39, P: 3.77, S: 3.28)

(a) CCOC(=O)C(=O)Nc1nc2c(s1)C[C@@H](NC(=O)c1cc3ccccc3[nH]1)CC2
(b) O=C(O)CCC(=O)Nc1nc2c(s1)C[C@@H](NC(=O)c1cc(Cl)c(Cl)[nH]1)CC2
Lab log: flag the item ( a or b ) with the smaller pIC50 figure. Provide the label of your selected option as the answer.
a
(a: 5.00, b: 6.52)

(A) COC(=O)CC(=O)Nc1nc2c(s1)C[C@H](NC(=O)c1cc(Br)c(Br)[nH]1)CC2
(B) Nc1ncc2c(n1)CCC(NC(=O)c1cc(Cl)c(Cl)[nH]1)C2 (configuration not stated)
Lab log: flag the item ( A or B ) with the smaller pIC50 figure. Provide the label of your selected option as the answer.
A

(I) O=C(O)CC(=O)Nc1nc2c(s1)C[C@@H](NC(=O)c1cc3ccccc3[nH]1)CC2
(II) Nc1nc2c(s1)C[C@@H](NC(=O)c1cc3cc(F)ccc3[nH]1)CC2
(III) Nc1nc2c(s1)C[C@@H](NC(=O)c1cc(Br)c(Br)[nH]1)CC2
(IV) COC(=O)CCC(=O)Nc1nc2c(s1)C[C@@H](NC(=O)c1cc(Br)c(Br)[nH]1)CC2
Arrange these 4 compounds in increasing order of pIC50. // format: requested-order list of labels
II, III, I, IV
(II: 3.57, III: 4.92, I: 5.12, IV: 7.03)

(P) O=C(O)C(=O)Nc1nc2c(s1)C[C@@H](NC(=O)c1cc3ccccc3[nH]1)CC2
(Q) COC(=O)CC(=O)Nc1nc2c(s1)C[C@@H](NC(=O)c1cc(Br)c(Br)[nH]1)CC2
(R) O=C(O)CC(=O)Nc1nc2c(s1)C[C@H](NC(=O)c1cc(Br)c(Br)[nH]1)CC2
(S) O=C(O)CC(=O)Nc1nc2c(s1)C[C@@H](NC(=O)c1cc(Br)c[nH]1)CC2
(T) COC(=O)CC(=O)Nc1ncc2c(n1)CCC(NC(=O)c1cc(Br)c(Br)[nH]1)C2 (configuration not stated)
Sort the 5 compounds by pIC50; largest first, smallest last. // format: requested-order list of labels
Q, R, T, P, S
(Q: 7.02, R: 6.30, T: 5.59, P: 5.11, S: 4.85)

Ref: ChEMBL document CHEMBL3588817
